Source of measurements: patent US11644474B2

Assay: Macimorelin plasma pharmacokinetics after single oral dose (Study AEZS-130-P01)
Assay type: in vivo, human (paediatric subjects with suspected GHD)
Conditions: human; C1, 0.25 mg/kg single oral dose, plasma, n=8 children

compound	Cmax
CC(C)(N)C(=O)N[C@H](Cc1c[nH]c2ccccc12)C(=O)N[C@H](Cc1c[nH]c2ccccc12)NC=O [macimorelin]	3.46 ng/mL

====

Experiment: Macimorelin plasma pharmacokinetics after single oral dose (Study AEZS-130-P01)
Format: in vivo, human (paediatric subjects with suspected GHD)
Settings: human; C2, 0.5 mg/kg single oral dose, plasma, n=8 children

smilesRepr	Cmax (ng/mL)
CC(C)(N)C(=O)N[C@H](Cc1c[nH]c2ccccc12)C(=O)N[C@H](Cc1c[nH]c2ccccc12)NC=O	8.13

====

Assay: Macimorelin plasma pharmacokinetics after single oral dose (Study AEZS-130-P01)
Format: in vivo, human (paediatric subjects with suspected GHD)
Conditions: human, plasma; C2, 0.5 mg/kg single oral dose; read-out: mean elimination half-life (converted)
readoutType: half-life (h)

smilesRepr	readoutType	endpointUnit	readoutNumber
CC(C)(N)C(=O)N[C@H](Cc1c[nH]c2ccccc12)C(=O)N[C@H](Cc1c[nH]c2ccccc12)NC=O	half-life	h	1.61

====

Assay: Macimorelin plasma pharmacokinetics after single oral dose (Study AEZS-130-P01)
Type: in vivo, human (paediatric subjects with suspected GHD)
Details: human; C2, 0.5 mg/kg single oral dose, plasma; read-out: mean AUC0-6 of macimorelin
readoutType: AUC(0-t) (ng·h/mL)

smilesRepr	endpointUnit	readoutNumber
CC(C)(N)C(=O)N[C@H](Cc1c[nH]c2ccccc12)C(=O)N[C@H](Cc1c[nH]c2ccccc12)NC=O	ng·h/mL	18

====

Assay: Macimorelin plasma pharmacokinetics after single oral dose (Study AEZS-130-P01)
Type: in vivo, human (paediatric subjects with suspected GHD)
Conditions: human; C3, 1 mg/kg single oral dose, plasma, n=8 children
readoutType: Cmax

compound	result
CC(C)(N)C(=O)N[C@H](Cc1c[nH]c2ccccc12)C(=O)N[C@H](Cc1c[nH]c2ccccc12)NC=O [macimorelin]	12.9 ng/mL

====

Test: Macimorelin plasma pharmacokinetics after single oral dose (Study AEZS-130-P01)
Type: in vivo, human (paediatric subjects with suspected GHD)
Conditions: human; C1, 0.25 mg/kg single oral dose, plasma; read-out: mean AUC0-6 of macimorelin
readoutType: AUC(0-t) (ng·h/mL)

smilesRepr	readoutNumber
CC(C)(N)C(=O)N[C@H](Cc1c[nH]c2ccccc12)C(=O)N[C@H](Cc1c[nH]c2ccccc12)NC=O	6.69

====

Test: Macimorelin plasma pharmacokinetics after single oral dose (Study AEZS-130-P01)
Format: in vivo, human (paediatric subjects with suspected GHD)
Conditions: human, plasma; C3, 1 mg/kg single oral dose; read-out: mean elimination half-life (converted)

smilesRepr	endpointUnit	half-life
CC(C)(N)C(=O)N[C@H](Cc1c[nH]c2ccccc12)C(=O)N[C@H](Cc1c[nH]c2ccccc12)NC=O	h	1.71
